Values were extracted from patent US20050112551A1.

# System: HeLa HRLuc cells
# particulars: read-out: Dual Reporter Assay CC50; Renilla luciferase reporter in infected HeLa HRLuc cells, ~72 hours; mean of 2 to 3 experiments
measurementName: CC50
Write the quantity with the unit trailing the number.

Given O=C(O)C(=O)CC(=O)c1cccn1Cc1ccc(F)cc1 [Compound L-731988] , state its recorded CC50.
166 µM

* * *

# assayInfo: in vitro
# particulars: human
measurementName: CC50

{"structure": "Cc1cn([C@H]2C[C@H](N=[N+]=[N-])[C@@H](CO)O2)c(=O)[nH]c1=O", "CC50": "> 320 µM"}

// query CC50 value for entry `Cc1cn([C@H]2C=C[C@@H](CO)O2)c(=O)[nH]c1=O`
> 32 µM

I am curious: what CC50 value has been reported for `Nc1ccn([C@@H]2CS[C@H](CO)O2)c(=O)n1` ?
> 32 µM

Returns the measured CC50 for the input compound. Input: `O=C1Nc2ccc(Cl)cc2[C@@](C#CC2CC2)(C(F)(F)F)O1`
71.7 µM

# get_value(readout='CC50', item= `O=c1[nH]cnc2c1ncn2[C@H]1CC[C@@H](CO)O1` )
> 32 µM

What does the data say about its CC50? Entry: `Cc1ccnc2c1NC(=O)c1cccnc1N2C1CC1`
> 32 µM

# input compound: `CC(C)Nc1cccnc1N1CCN(C(=O)c2cc3cc(NS(C)(=O)=O)ccc3[nH]2)CC1` ; wanted: its CC50
> 100 µM

GET /values?readout=CC50&item= `CC(C)c1nc(COC(N)=O)n(Cc2ccncc2)c1Sc1cc(Cl)cc(Cl)c1`
36.4 µM
